- test method notes: cn = amount concentration of the nth substance listed, in mol/dm3
- measurement context: 318.15 K; 101.3 kPa; Liquid; Vibrating tube method; c1 = 1
measurement label: mass density (kg/m3)

INSERT INTO measurements (compound, measurement_label, quantitative_readout) VALUES
  ('[Cl-].[Na+] [sodium chloride] + O', 'mass density', 1026.75),
  ('[Cl-].[K+] [potassium chloride] + O', 'mass density', 1032.69),
  ('CC(=O)[O-].[K+] [potassium ethanoate] + O', 'mass density', 1033.57),
  ('[Br-].[K+] [potassium bromide] + O', 'mass density', 1066.6);

* * *

- test method notes: cn = amount concentration of the nth substance listed, in mol/dm3
- measurement context: 313.15 K; 101.3 kPa; Liquid; Vibrating tube method; c1 = 1.5
measurement label: mass density (kg/m3)

INSERT INTO results (molecule, quantitative_readout) VALUES
  ('[Cl-].[K+] [potassium chloride] + O', 1051.75),
  ('[Cl-].[Na+] [sodium chloride] + O', 1050.21),
  ('CC(=O)[O-].[K+] [potassium ethanoate] + O', 1059.39),
  ('[Br-].[K+] [potassium bromide] + O', 1110.71);

* * *

- test method notes: cn = amount concentration of the nth substance listed, in mol/dm3
- measurement context: 308.15 K; 101.3 kPa; Liquid; Vibrating tube method; c1 = 3.5
measurement label: mass density (kg/m3)

INSERT INTO measurements (molecule, measurement_label, result_unit, quantitative_readout) VALUES
  ('[Cl-].[K+] [potassium chloride] + O', 'mass density', 'kg/m3', 1140.06),
  ('CC(=O)[O-].[K+] [potassium ethanoate] + O', 'mass density', 'kg/m3', 1143.14),
  ('[Cl-].[Na+] [sodium chloride] + O', 'mass density', 'kg/m3', 1118.95),
  ('[Br-].[K+] [potassium bromide] + O', 'mass density', 'kg/m3', 1272.28);

* * *

- test method notes: cn = amount concentration of the nth substance listed, in mol/dm3
- measurement context: 308.15 K; 101.3 kPa; Liquid; Vibrating tube method; c1 = 4
measurement label: mass density (kg/m3)

INSERT INTO assay_data (molecule, measurement_label, quantitative_readout) VALUES
  ('[Cl-].[K+] [potassium chloride] + O', 'mass density', 1163.34),
  ('[Cl-].[Na+] [sodium chloride] + O', 'mass density', 1142.7),
  ('CC(=O)[O-].[K+] [potassium ethanoate] + O', 'mass density', 1165.13),
  ('[Br-].[K+] [potassium bromide] + O', 'mass density', 1316.47);

* * *

- test method notes: cn = amount concentration of the nth substance listed, in mol/dm3
- measurement context: 318.15 K; 101.3 kPa; Liquid; Vibrating tube method; c1 = 3.5
measurement label: mass density (kg/m3)

INSERT INTO assay_data (molecule, quantitative_readout) VALUES
  ('[Cl-].[K+] [potassium chloride] + O', 1133.63),
  ('CC(=O)[O-].[K+] [potassium ethanoate] + O', 1136.58),
  ('[Br-].[K+] [potassium bromide] + O', 1264.46),
  ('[Cl-].[Na+] [sodium chloride] + O', 1112.16);
